# pIC50 per entry
# systemName: wtKIT (Homo sapiens, UniProt P10721)
# Construct: 1888289AM in the reaction mixtures
# Sequence (P10721 26-976): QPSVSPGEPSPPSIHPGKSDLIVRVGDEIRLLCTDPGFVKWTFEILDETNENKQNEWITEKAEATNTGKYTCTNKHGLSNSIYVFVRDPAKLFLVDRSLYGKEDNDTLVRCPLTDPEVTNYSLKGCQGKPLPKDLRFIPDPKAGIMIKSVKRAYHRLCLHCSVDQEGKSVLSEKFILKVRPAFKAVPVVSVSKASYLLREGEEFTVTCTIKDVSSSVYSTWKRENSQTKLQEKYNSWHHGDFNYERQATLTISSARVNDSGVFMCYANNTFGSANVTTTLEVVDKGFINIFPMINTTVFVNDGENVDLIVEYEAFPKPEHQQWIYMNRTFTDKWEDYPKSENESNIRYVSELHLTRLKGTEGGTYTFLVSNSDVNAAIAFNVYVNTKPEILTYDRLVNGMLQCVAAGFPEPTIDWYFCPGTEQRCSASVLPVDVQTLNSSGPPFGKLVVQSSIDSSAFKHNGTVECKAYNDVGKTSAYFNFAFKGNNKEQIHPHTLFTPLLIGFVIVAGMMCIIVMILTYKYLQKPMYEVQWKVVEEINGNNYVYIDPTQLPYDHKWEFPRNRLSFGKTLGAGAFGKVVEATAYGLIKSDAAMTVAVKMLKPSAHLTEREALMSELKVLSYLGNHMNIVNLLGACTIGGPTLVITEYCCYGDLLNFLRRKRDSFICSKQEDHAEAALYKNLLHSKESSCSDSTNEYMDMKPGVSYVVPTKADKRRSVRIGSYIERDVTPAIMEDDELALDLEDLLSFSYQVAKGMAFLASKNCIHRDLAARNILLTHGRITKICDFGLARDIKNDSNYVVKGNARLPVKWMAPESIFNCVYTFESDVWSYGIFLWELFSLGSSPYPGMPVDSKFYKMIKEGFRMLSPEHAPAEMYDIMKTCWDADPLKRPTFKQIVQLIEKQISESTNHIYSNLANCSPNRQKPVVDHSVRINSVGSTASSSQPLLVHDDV
# protocolDescription: HTRF biochemical assay, wtKIT (phosphorylation of a peptide substrate)
# experimentalConditions: Table 4
pIC50: −log10 of the molar value.

{"columns": ["testSmiles", "systemName", "pIC50"],
 "data": [
  ["COCCS(=O)(=O)N1CC(c2nc(-c3ccc(C)c(NC(=O)c4cnc5ccccn45)c3)no2)C1", "wtKIT (Homo sapiens, UniProt P10721)", "6.30 to 7.30"],
  ["COCc1ccn2c(C(=O)Nc3cc(-c4noc(C)n4)ccc3C)cnc2c1", "wtKIT (Homo sapiens, UniProt P10721)", "≥ 7.30"],
  ["Cc1ccc(-c2noc([C@H]3C[C@@H]3F)n2)cc1NC(=O)c1cnc2cc(CCOCCO)ccn12", "wtKIT (Homo sapiens, UniProt P10721)", "≥ 7.30"],
  ["CCCS(=O)(=O)N1CC(c2nc(-c3ccc(Cl)c(NC(=O)c4cnc5ccccn45)c3)no2)C1", "wtKIT (Homo sapiens, UniProt P10721)", "≥ 7.30"]
]}

* * *

# protocolDescription: Three time point assay for plasma, brain and testes distribution after oral dosing
# Format: in vivo, rat
# experimentalConditions: rat, oral dosing, time point 2 h
quantityMeasured: Brain concentration (ng/g)

{"columns": ["molecule", "quantityMeasured", "resultUnits", "quantitativeResult"],
 "data": [
  ["Cc1ccc(-c2noc(C3(O)CC(F)(F)C3)n2)cc1NC(=O)c1cnc2ccccn12", "Brain concentration", "ng/g", 28.2],
  ["Cc1ccc(-c2noc([C@@H](C)O)n2)cc1NC(=O)c1cnc2ccccn12", "Brain concentration", "ng/g", 25.6],
  ["Cc1ccc(-c2noc([C@H]3CC(F)(F)CN3)n2)cc1NC(=O)c1cnc2ccccn12", "Brain concentration", "ng/g", 52.7],
  ["Cc1cc(C)cc(Nc2ccc3ncc(C(=O)Nc4cc(-c5noc([C@H]6C[C@@H]6F)n5)ccc4C)n3c2)c1", "Brain concentration", "ng/g", 101],
  ["Cc1ccc(-c2noc([C@H]3C[C@@H]3F)n2)cc1NC(=O)c1cnc2cc(OC(F)(F)F)ccn12", "Brain concentration", "ng/g", 954],
  ["O=C(Nc1cc(-c2noc([C@H]3C[C@@H]3F)n2)ccc1Br)c1cnc2ccccn12", "Brain concentration", "ng/g", 3660],
  ["Cc1nc(-c2ccc(C)c(NC(=O)c3cnc4ccccn34)c2)no1", "Brain concentration", "ng/g", 3420],
  ["Cc1ccc(-c2noc(CC(O)C(F)F)n2)cc1NC(=O)c1cnc2ccccn12 (centres unmarked)", "Brain concentration", "ng/g", 113]
]}

* * *

# systemName: wtKIT (Homo sapiens)
# Construct: 1888289AM in the reaction mixtures
# protocolDescription: HTRF biochemical assay, wtKIT (phosphorylation of a peptide substrate)
# experimentalConditions: Table 4
pIC50: −log10 of the molar value.
# pIC50 per entry

{"columns": ["compound", "pIC50"],
 "data": [
  ["Cc1nc(-c2ccc(C)c(NC(=O)c3cnc4cc(-c5ccn(C)n5)ccn34)c2)no1 [Compound I-530]", "≥ 7.30"],
  ["COC(=O)N1CC(c2nc(-c3ccc(C)c(NC(=O)c4cnc5cc(OC(C)(C)CO)ccn45)c3)no2)C1 [Compound I-228]", "6.30 to 7.30"],
  ["CCS(=O)(=O)N1CC[C@@H]1c1nc(-c2ccc(C)c(NC(=O)c3cnc4ccccn34)c2)no1 [Compound I-234]", "6.30 to 7.30"],
  ["Cc1ccc(-c2noc([C@H]3C[C@@H]3F)n2)cc1NC(=O)c1cnc2cc(-c3cscn3)ccn12 [Compound I-547]", "≥ 7.30"],
  ["Cc1ccc(-c2noc(C(C)NS(C)(=O)=O)n2)cc1NC(=O)c1cnc2ccccn12 (single isomer, unassigned) [Compound I-238]", "6.30 to 7.30"],
  ["CCc1nc(-c2ccc(C)c(NC(=O)c3cnc4cc(-c5cscn5)ccn34)c2)no1 [Compound I-720]", "≥ 7.30"],
  ["Cc1nc(-c2ccc(C)c(NC(=O)c3cnc4cc(-c5ncsc5CO)ccn34)c2)no1 [Compound I-595]", "≥ 7.30"],
  ["Cc1ccc(-c2ncon2)cc1NC(=O)c1cnc2cc(N(C)C)ccn12 [Compound I-718]", "≥ 7.30"],
  ["Cc1ccc(-c2noc([C@H]3C[C@@H]3F)n2)cc1NC(=O)c1cnc2cc(OC(F)(F)F)ccn12 [Compound I-87]", "6.30 to 7.30"],
  ["Cc1ccc(-c2noc(CC(O)CN3CCOCC3)n2)cc1NC(=O)c1cnc2ccccn12 (stereo not drawn) [Compound I-543]", "6.30 to 7.30"],
  ["Cc1ccc(-c2noc([C@H]3C[C@@H]3F)n2)cc1NC(=O)c1cnn2cc(COCC(C)(C)O)ccc12 [Compound I-466]", "≥ 7.30"],
  ["Cc1ccc(-c2noc([C@H]3C[C@@H]3F)n2)cc1NC(=O)c1cnc2cc(COC[C@@H](O)C(F)F)ccn12 [Compound I-500]", "≥ 7.30"],
  ["Cc1ccn2c(C(=O)Nc3cc(-c4noc(CCC(C)(O)C(F)(F)F)n4)ccc3C)cnc2c1 (stereo not drawn) [Compound I-752]", "≥ 7.30"],
  ["Cc1ccc(-c2noc([C@H]3C[C@@H]3F)n2)cc1NC(=O)c1cnc2c(F)c(COCC(C)(C)O)ccn12 [Compound I-473]", "6.30 to 7.30"],
  ["Cc1ccc(-c2ncon2)cc1NC(=O)c1cnc2cc(COCCO)ccn12 [Compound I-700]", "6.30 to 7.30"]
]}
